assay: Half life in human liver microsomes in presence of NADPH by LC/MS/MS method; assay type: ADME, Microsome
Below, each entry is listed with its recorded half-life.

Examples with their reported half-life follow.
{"columns": ["Compound", "Property", "Data value"],
 "data": [
  ["O=C(N1CC[C@@]2(S(=O)(=O)c3ccc(F)cc3)c3ccc(C(F)(C(F)(F)F)C(F)(F)F)cc3CC[C@@H]12)C1(O)CCS(=O)(=O)CC1", "half-life", "> 2 h"],
  ["O=C(O)[C@H]1CC[C@H](C(=O)N2CC[C@@]3(S(=O)(=O)c4ccc(F)cc4)c4ccc(C(F)(C(F)(F)F)C(F)(F)F)cc4CC[C@@H]23)CC1", "half-life", "> 2 h"]
]}

# next compound below
What value of measured half-life is listed for `C[C@@H]1C[C@H](C(=O)O)CC[C@H]1C(=O)N1CC[C@@]2(S(=O)(=O)c3ccc(F)cc3)c3ccc(C(F)(C(F)(F)F)C(F)(F)F)cc3CC[C@@H]12` ?
> 2 h

---

target: Cytochrome P450 2C8 (Homo sapiens, UniProt P10632); assay: Inhibition of recombinant CYP2C8 (unknown origin)
Sequence (P10632 whole entry): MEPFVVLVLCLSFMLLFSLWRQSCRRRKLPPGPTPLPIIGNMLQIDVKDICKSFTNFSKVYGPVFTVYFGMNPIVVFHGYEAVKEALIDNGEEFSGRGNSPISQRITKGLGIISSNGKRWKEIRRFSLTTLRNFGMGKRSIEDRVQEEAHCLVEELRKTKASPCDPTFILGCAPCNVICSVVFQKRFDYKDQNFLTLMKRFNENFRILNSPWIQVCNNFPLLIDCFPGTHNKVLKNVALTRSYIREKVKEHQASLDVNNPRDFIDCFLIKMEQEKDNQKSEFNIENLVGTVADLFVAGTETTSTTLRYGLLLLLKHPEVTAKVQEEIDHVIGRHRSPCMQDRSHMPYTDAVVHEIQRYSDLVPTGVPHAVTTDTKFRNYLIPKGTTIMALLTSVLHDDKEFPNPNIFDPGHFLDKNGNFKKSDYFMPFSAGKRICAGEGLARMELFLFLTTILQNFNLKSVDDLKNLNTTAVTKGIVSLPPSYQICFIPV
Property: pIC50
Please treat pIC50 as minus the base-10 logarithm of the molar concentration.

I'd like to know its pIC50. The compound in question is C[C@H]1C[C@H](C(=O)O)CC[C@H]1C(=O)N1CC[C@@]2(S(=O)(=O)c3ccc(F)cc3)c3ccc(C(F)(C(F)(F)F)C(F)(F)F)cc3CC[C@@H]12 [BMS-986251]
4.80

---

target: UniProt:P10635; assay: Inhibition of recombinant CYP2D6 (unknown origin)
Sequence (P10635 whole entry): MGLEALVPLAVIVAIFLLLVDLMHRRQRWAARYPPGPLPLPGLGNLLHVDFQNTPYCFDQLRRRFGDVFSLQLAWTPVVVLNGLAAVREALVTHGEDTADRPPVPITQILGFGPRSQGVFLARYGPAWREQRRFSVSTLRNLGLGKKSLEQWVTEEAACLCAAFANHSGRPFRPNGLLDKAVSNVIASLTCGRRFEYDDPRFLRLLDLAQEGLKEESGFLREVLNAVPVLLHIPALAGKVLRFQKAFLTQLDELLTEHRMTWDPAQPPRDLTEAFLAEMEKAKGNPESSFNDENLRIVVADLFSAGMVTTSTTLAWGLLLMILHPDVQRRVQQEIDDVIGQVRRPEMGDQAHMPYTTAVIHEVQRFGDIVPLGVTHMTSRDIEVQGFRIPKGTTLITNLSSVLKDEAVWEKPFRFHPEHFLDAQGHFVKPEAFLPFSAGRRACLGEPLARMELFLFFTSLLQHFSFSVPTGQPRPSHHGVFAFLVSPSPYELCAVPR
Property: IC50

Give its IC50 value. Item: C[C@H]1C[C@H](C(=O)O)CC[C@H]1C(=O)N1CC[C@@]2(S(=O)(=O)c3ccc(F)cc3)c3ccc(C(F)(C(F)(F)F)C(F)(F)F)cc3CC[C@@H]12 [BMS-986251]
> 20 µM

---

target: Nuclear receptor ROR-gamma (Mus musculus, UniProt P51450); test: Inverse agonist activity at RORgammat in mouse whole blood assessed as suppression of […] secretion
Sequence (P51450 whole entry): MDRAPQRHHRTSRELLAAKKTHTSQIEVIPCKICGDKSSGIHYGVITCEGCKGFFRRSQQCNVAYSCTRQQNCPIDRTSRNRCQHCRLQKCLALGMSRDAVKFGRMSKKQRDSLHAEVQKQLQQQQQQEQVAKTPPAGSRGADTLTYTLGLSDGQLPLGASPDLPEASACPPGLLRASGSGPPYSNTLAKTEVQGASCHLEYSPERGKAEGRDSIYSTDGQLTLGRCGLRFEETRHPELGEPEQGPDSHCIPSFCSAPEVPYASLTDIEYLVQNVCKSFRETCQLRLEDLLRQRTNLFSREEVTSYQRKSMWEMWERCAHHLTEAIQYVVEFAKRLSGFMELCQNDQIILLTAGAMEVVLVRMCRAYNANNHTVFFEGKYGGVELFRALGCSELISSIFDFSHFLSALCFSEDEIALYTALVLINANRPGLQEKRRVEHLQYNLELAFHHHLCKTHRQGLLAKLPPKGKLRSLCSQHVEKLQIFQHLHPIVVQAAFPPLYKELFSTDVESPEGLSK
Property: EC50 (nM)
Dear colleague, please return just the value in nM, with no unit written.

Query: EC50; subject: `C[C@H]1C[C@H](C(=O)O)CC[C@H]1C(=O)N1CC[C@@]2(S(=O)(=O)c3ccc(F)cc3)c3ccc(C(F)(C(F)(F)F)C(F)(F)F)cc3CC[C@@H]12`
11

---

test: Clearance in dog at 1 mg/kg, iv; format: ADME, organism-based, Canis lupus familiaris; settings: in vivo
Property: clearance (mL/min/kg)
// note: answer is a bare numeric in mL/min/kg

Look up clearance: `C[C@H]1C[C@H](C(=O)O)CC[C@H]1C(=O)N1CC[C@@]2(S(=O)(=O)c3ccc(F)cc3)c3ccc(C(F)(C(F)(F)F)C(F)(F)F)cc3CC[C@@H]12`
0.18

---

assay: Half life in rat at 2 mg/kg, iv; type: ADME, organism-based; conditions: in vivo
Property: half-life (h)
Numbers only; they are read as h.

// half-life lookup, key: `C[C@H]1C[C@H](C(=O)O)CC[C@H]1C(=O)N1CC[C@@]2(S(=O)(=O)c3ccc(F)cc3)c3ccc(C(F)(C(F)(F)F)C(F)(F)F)cc3CC[C@@H]12`
11

---

assay: AUC (0 to 24 hrs) in dog at 1 mg/kg, po; assay type: ADME, organism-based, Canis lupus familiaris; parameters: time < 24 hr, dose 1 mg/kg, route oral; conditions: in vivo
Property: AUC(0-t) at 24 h (µM·h)
Write it as a number; the unit µM·h goes unstated.

May I ask what AUC(0-t) at 24 h has been recorded for `C[C@H]1C[C@H](C(=O)O)CC[C@H]1C(=O)N1CC[C@@]2(S(=O)(=O)c3ccc(F)cc3)c3ccc(C(F)(C(F)(F)F)C(F)(F)F)cc3CC[C@@H]12` ?
120

---

assay: Cmax in Balb/c mouse at 10 mg/kg, po; format: ADME, organism-based; parameters: dose 10 mg/kg, route oral; details: in vivo
Property: Cmax (µM)
Report as a plain number; the unit µM is understood.

Use these answered entries as a reference point.
{"columns": ["Molecule", "Cmax [µM]"],
 "data": [
  ["C[C@H]1C[C@H](C(=O)N2CC[C@@]3(S(=O)(=O)c4cccc(F)c4)c4ccc(C(F)(C(F)(F)F)C(F)(F)F)cc4CC[C@@H]23)CC[C@H]1C(=O)O", 12],
  ["C[C@@H]1C[C@H](C(=O)N2CC[C@@]3(S(=O)(=O)c4ccc(F)cc4)c4ccc(C(F)(C(F)(F)F)C(F)(F)F)cc4CC[C@@H]23)CC[C@H]1C(=O)O", 9]
]}

Fill in: Cmax of C[C@H]1C[C@H](C(=O)O)CC[C@H]1C(=O)N1CC[C@@]2(S(=O)(=O)c3ccc(F)cc3)c3ccc(C(F)(C(F)(F)F)C(F)(F)F)cc3CC[C@@H]12 [BMS-986251] is ___
11

---

test: AUC (0 to 24 hrs) in rat at 4 mg/kg, po; assay type: ADME, organism-based; parameters: time < 24 hr, dose 4 mg/kg, route oral; settings: in vivo
Property: AUC(0-t) at 24 h (µM·h)
// note: answer is a bare numeric in µM·h

Looking for the measured AUC(0-t) at 24 h of `C[C@H]1C[C@H](C(=O)O)CC[C@H]1C(=O)N1CC[C@@]2(S(=O)(=O)c3ccc(F)cc3)c3ccc(C(F)(C(F)(F)F)C(F)(F)F)cc3CC[C@@H]12` , can you help?
64

---

experiment: Volume of distribution in steady state in mouse at 2 mg/kg, iv; type: ADME, organism-based; conditions: in vivo, read-out: Vdss
Property: Vd (L/kg)
Provide the reading as a plain figure in L/kg.

For the compound `C[C@H]1C[C@H](C(=O)O)CC[C@H]1C(=O)N1CC[C@@]2(S(=O)(=O)c3ccc(F)cc3)c3ccc(C(F)(C(F)(F)F)C(F)(F)F)cc3CC[C@@H]12` , what Vd is on record?
1.9

---

Target: Nuclear receptor ROR-alpha (Homo sapiens, UniProt P35398)
Sequence (P35398 whole entry): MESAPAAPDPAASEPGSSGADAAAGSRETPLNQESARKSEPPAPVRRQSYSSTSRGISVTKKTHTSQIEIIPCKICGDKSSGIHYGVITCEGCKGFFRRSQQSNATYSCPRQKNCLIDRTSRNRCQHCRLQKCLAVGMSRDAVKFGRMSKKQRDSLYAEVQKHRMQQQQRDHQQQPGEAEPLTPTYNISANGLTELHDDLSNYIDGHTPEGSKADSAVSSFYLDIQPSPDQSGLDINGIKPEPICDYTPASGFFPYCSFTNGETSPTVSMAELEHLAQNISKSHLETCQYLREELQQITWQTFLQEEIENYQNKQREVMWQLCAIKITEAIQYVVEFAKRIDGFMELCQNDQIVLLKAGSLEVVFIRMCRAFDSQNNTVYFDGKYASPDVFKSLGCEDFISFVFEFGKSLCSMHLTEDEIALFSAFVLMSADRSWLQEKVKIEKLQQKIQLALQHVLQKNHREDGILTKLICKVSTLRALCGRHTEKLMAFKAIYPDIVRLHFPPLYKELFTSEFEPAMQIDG
Assay: Inverse agonist activity at Gal4-fused RORalpha (unknown origin)
Property: EC50

Using the record for C[C@H]1C[C@H](C(=O)O)CC[C@H]1C(=O)N1CC[C@@]2(S(=O)(=O)c3ccc(F)cc3)c3ccc(C(F)(C(F)(F)F)C(F)(F)F)cc3CC[C@@H]12 [BMS-986251] , report its EC50.
> 10 µM

---

assay: Cmax in dog at 1 mg/kg, po; assay type: ADME, organism-based, Canis lupus familiaris; parameters: dose 1 mg/kg, route oral; conditions: in vivo
Property: Cmax (µM)
Provide the reading as a plain figure in µM.

Endpoint output: Cmax of `C[C@H]1C[C@H](C(=O)O)CC[C@H]1C(=O)N1CC[C@@]2(S(=O)(=O)c3ccc(F)cc3)c3ccc(C(F)(C(F)(F)F)C(F)(F)F)cc3CC[C@@H]12` . Value?
6.4

---

experiment: Clearance in cynomolgus monkey at 1 mg/kg, iv; type: ADME, organism-based, Macaca fascicularis; details: in vivo
Property: clearance (mL/min/kg)
Express the result in mL/min/kg but write the number alone.

Given the entry `C[C@H]1C[C@H](C(=O)O)CC[C@H]1C(=O)N1CC[C@@]2(S(=O)(=O)c3ccc(F)cc3)c3ccc(C(F)(C(F)(F)F)C(F)(F)F)cc3CC[C@@H]12` , report its measured clearance.
1.1
